target: Muscarine M3 (GPCR-A-MA-ACH M3) (Homo sapiens); construct: expressed in transfected cells; host or cells: CHO cells; experiment: Muscarine M3 receptor binding; conditions: human M3, CHO cells; receptor binding
Sequence (P20309 whole entry): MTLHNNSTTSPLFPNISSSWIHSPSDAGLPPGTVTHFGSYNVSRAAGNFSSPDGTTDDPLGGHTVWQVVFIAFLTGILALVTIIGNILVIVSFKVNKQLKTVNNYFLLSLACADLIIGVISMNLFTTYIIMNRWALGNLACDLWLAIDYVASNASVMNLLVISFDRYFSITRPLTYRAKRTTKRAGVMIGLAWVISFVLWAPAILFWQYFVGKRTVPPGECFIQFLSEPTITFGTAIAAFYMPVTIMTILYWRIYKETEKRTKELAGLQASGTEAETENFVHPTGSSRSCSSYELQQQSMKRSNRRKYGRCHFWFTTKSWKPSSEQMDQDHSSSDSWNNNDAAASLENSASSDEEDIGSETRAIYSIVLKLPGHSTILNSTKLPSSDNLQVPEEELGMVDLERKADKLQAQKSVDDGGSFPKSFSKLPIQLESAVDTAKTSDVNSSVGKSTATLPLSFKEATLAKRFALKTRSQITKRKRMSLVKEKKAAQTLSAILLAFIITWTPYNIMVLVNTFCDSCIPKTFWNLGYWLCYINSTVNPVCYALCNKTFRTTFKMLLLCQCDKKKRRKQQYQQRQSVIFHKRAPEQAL
pKi: −log10 of the molar value.
measurement kind: pKi

- compound: "C=CCCCSc1c[nH]nc1C1=CCCN(C)C1 [Compound 22L]"
  pKi: 6.50

A = CN1CCC=C(c2n[nH]cc2SCCCCCSc2c[nH]nc2C2=CCCN(C)C2)C1 [Compound 22C]
B = CCCCCCOc1c[nH]nc1C1=CCCN(C)C1 [Compound 33B]
C = CC(C)CCSc1c[nH]nc1C1=CCCN(C)C1 [Compound 22S]
D = CCCCCOc1c[nH]nc1C1=CCCN(C)C1 [Compound 33G]
Ordering: ascending pKi. Give me the labels in the order the question wants.
D, B, C, A
(D: 6.10, B: 6.40, C: 7.30, A: 7.50)

----------
target: Muscarine M4 (GPCR-A-MA-ACH M4) (Homo sapiens); construct: expressed in transfected cells; host or cells: CHO cells; test: Muscarine M4 receptor binding, 3H-4DAMP; conditions: human M4, CHO cells, ligand 0.2 nM, 60 min/22° C., read-out: RB Musc. M4 3H-DAMP pKi (converted)
measurement kind: Ki (nM)

- compound: "CCCSc1c[nH]nc1C1CN2CCC1CC2 (stereo not drawn) [Compound 49E]"
  measurement kind: "Ki"
  recorded value: 39.8
- compound: "CN1CCC=C(c2n[nH]cc2SCCC#N)C1 [Compound 22R]"
  measurement kind: "Ki"
  recorded value: 3980
- compound: "CCCCSc1c[nH]nc1C1CN2CCC1CC2 (stereo not drawn) [Compound 49A]"
  measurement kind: "Ki"
  recorded value: 15.8
- compound: "CCCCC=Cc1c[nH]nc1C1=CCCN(C)C1 [Compound 47A]"
  measurement kind: "Ki"
  recorded value: 794
- compound: "CCCCCSc1c[nH]nc1C1=CCCN(C)C1 [Compound 22G]"
  measurement kind: "Ki"
  recorded value: 50.1

a = CCSc1c[nH]nc1C1=CCCN(C)C1 [Compound 22D]
b = CCOCCSc1c[nH]nc1C1=CCCN(C)C1 [Compound 22O]
Between a and b , which one has the lower reported Ki value? Mark your answer with the label of the selected entry.
a
(a: 398 nM, b: 794 nM)

I = CCCCCCCC#Cc1c[nH]nc1C1=CCCN(C)C1 [Compound 45C]
II = CCCCCSc1nc[nH]c1C1=CCCN(C)C1 [Compound 76A]
Between I and II , which one has the lower reported Ki value? Mark your answer with the label of the selected entry.
II

1 = C=CCCCSc1c[nH]nc1C1=CCCN(C)C1 [Compound 22L]
2 = CCCCSc1cc(C2=CCCN(C)C2)n[nH]1
3 = CCCSc1c[nH]nc1C1=CCCN(C)C1 [Compound 22E]
Place the items in sequence of falling Ki. Give me the labels in the order the question wants.
3, 2, 1
(3: 316 nM, 2: 200 nM, 1: 100 nM)

----------
measurement kind: melting point

# melting point lookup, item CCCCSc1c[nH]nc1C1=CCCN(C)C1 [Compound 22F]
120 to 121 °C

# melting point lookup, item CCCCSc1c[nH]nc1C1CN2CCC1CC2 (stereo not shown) [Compound 49A]
162 to 164 °C

# melting point lookup, item CCSc1c[nH]nc1C1=CCCN(C)C1 [Compound 22D]
95 to 97 °C

# melting point lookup, item CCCCCCSc1c[nH]nc1C1CN2CCC1CC2 (stereo not shown) [Compound 49F]
130 °C

----------
molecular target: Muscarine M4 (GPCR-A-MA-ACH M4) (Homo sapiens); construct: expressed in transfected cells; host or cells: CHO cells; test: Muscarine M4 cell-based functional assay (CHO cells, Ca2+ - Aequorin luminescence); conditions: human M4, CHO cells; agonist mode, reference agonist oxotremorine; read-out: Cell funct. Musc. M4 Agonism pEC50 (converted)
measurement kind: EC50

# EC50 lookup, item CCCCCCCC#Cc1c[nH]nc1C1=CCCN(C)C1 [Compound 45C]
2 µM

# EC50 lookup, item CCCCCc1c[nH]nc1C1=CCCN(C)C1
> 10 µM

# EC50 lookup, item CN1CCC=C(c2n[nH]cc2SCc2ccco2)C1 [Compound 22M]
> 10 µM

# EC50 lookup, item CN1CCC=C(c2n[nH]cc2SCc2ccccc2)C1 [Compound 22N]
> 10 µM

----------
Target: Muscarine M4 (GPCR-A-MA-ACH M4) (Homo sapiens)
Construct: expressed in transfected cells; host or cells: CHO cells
Sequence (P08173 1-479): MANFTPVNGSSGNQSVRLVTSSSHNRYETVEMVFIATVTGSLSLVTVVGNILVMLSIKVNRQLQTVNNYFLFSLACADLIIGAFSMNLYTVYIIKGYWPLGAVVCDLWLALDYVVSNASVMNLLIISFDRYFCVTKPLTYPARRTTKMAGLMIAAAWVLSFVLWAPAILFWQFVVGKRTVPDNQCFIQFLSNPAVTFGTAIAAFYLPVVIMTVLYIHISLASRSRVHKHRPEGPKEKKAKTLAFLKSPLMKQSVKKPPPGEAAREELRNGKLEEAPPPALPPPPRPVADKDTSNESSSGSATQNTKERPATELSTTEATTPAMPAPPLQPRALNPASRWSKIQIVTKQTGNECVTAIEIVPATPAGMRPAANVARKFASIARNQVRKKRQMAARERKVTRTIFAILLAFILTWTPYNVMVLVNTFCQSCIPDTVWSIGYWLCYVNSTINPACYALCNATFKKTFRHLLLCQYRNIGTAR
Assay: Muscarine M4 receptor binding, 3H-4DAMP
Conditions: human M4, CHO cells, ligand 0.2 nM, 60 min/22° C., read-out: RB Musc. M4 3H-DAMP pKi (converted)
measurement kind: Ki (µM)

// known answers, use as guide
- compound: "CN1CCC=C(c2n[nH]cc2OCCCc2ccccc2)C1 [Compound 33A]"
  measurement kind: "Ki"
  recorded value: 0.251
- compound: "CCCCCC#Cc1conc1C1=CCCN(C)C1 [Compound 70A]"
  measurement kind: "Ki"
  recorded value: 0.2
- compound: "CCCCCc1c[nH]nc1C1=CCCN(C)C1"
  measurement kind: "Ki"
  recorded value: 0.316
- compound: "CCCCSc1c[nH]nc1[C@@H]1CN2CCC[C@H]1C2 (relative stereo) [Compound 60B]"
  measurement kind: "Ki"
  recorded value: 0.158
- compound: "CCSc1c[nH]nc1C1CN2CCC1CC2 (stereo not shown) [Compound 49D]"
  measurement kind: "Ki"
  recorded value: 0.1
- compound: "COCCOCCSc1c[nH]nc1C1=CCCN(C)C1 [Compound 22P]"
  measurement kind: "Ki"
  recorded value: 6.31
- compound: "CCCCC#Cc1c[nH]nc1C1=CCCN(C)C1 [Compound 45A]"
  measurement kind: "Ki"
  recorded value: 0.631
- compound: "CCCCCC#Cc1c[nH]nc1C1=CCCN(C)C1 [Compound 45B]"
  measurement kind: "Ki"
  recorded value: 1.26
- compound: "CCCCCCSc1conc1C1=CCCN(C)C1 [Compound 66B]"
  measurement kind: "Ki"
  recorded value: 0.1
- compound: "CCCCCCC=Cc1c[nH]nc1C1=CCCN(C)C1 [Compound 47C]"
  measurement kind: "Ki"
  recorded value: 0.794

1 = CN1CCC=C(c2n[nH]cc2SCC=Cc2ccccc2)C1 [Compound 22K]
2 = CCCCNc1c[nH]nc1C1=CCCN(C)C1
Between 1 and 2 , whose recorded Ki is greater? Mark your answer with the label of the selected entry.
2

a = CCCCCCSc1nc[nH]c1C1=CCCN(C)C1 [Compound 76B]
b = CCCCC=Cc1conc1C1=CCCN(C)C1 [Compound 68A]
Between a and b , whose recorded Ki is greater? Mark your answer with the label of the selected entry.
a
(a: 0.501 µM, b: 0.251 µM)

1 = CC(C)CCSc1c[nH]nc1C1=CCCN(C)C1 [Compound 22S]
2 = CN1CCC=C(c2n[nH]cc2C#CCCCc2ccccc2)C1 [Compound 45D]
3 = CCCCOc1c[nH]nc1C1=CCCN(C)C1 [Compound 33C]
4 = CCCCCOc1c[nH]nc1C1=CCCN(C)C1 [Compound 33G]
5 = CN1CCC=C(c2n[nH]cc2C#CCCCC2CCCCC2)C1 [Compound 45E]
Place the items in sequence of falling Ki. Give me the labels in the order the question wants.
5, 2, 3, 4, 1

P = CCCCCSc1c[nH]nc1[C@@H]1CN2CCC[C@H]1C2 [Compound 60A]
Q = CCCCCCSc1c[nH]nc1C1=CCCN(C)C1 [Compound 22H]
Between P and Q , whose recorded Ki is greater? Mark your answer with the label of the selected entry.
P
(P: 0.251 µM, Q: 0.0631 µM)

----------
biological target: Muscarine M4 (GPCR-A-MA-ACH M4) (Homo sapiens, UniProt P08173); construct: expressed in transfected cells; host or cells: CHO cells; assay: Muscarine M4 receptor binding, 3H-Oxotremorine; conditions: human M4, CHO cells; receptor binding, ligand 6 nM, 30 min/25° C.; read-out: RB Musc. M4 3H-Oxotremorine pKi (converted)
measurement kind: Ki (nM)

// known answers, use as guide
- compound: "CN1CCC=C(c2n[nH]cc2C#CCCCC2CCCCC2)C1 [Compound 45E]"
  recorded value: 1580
- compound: "CCCCCCSc1conc1C1=CCCN(C)C1 [Compound 66B]"
  recorded value: 158

1 = CCCSc1c[nH]nc1C1=CCCN(C)C1 [Compound 22E]
2 = CN1CCC=C(c2n[nH]cc2C#CCCCc2ccccc2)C1 [Compound 45D]
3 = CCCCCC#Cc1conc1C1=CCCN(C)C1 [Compound 70A]
Ordering: ascending Ki. Give me the labels in the order the question wants.
1, 3, 2
(1: 100 nM, 3: 251 nM, 2: 501 nM)

FYI, the data here is from patent US8735388B2.
